These measurements were taken from patent US11352372B2.

Molecular target: human kallikrein 5 recombinant enzyme (KLK5) (Homo sapiens)
Construct: The cleaved protein was then further purified on a 1 mL Heparin HP HITRAP column; 6His (cleaved yes); FLAG (cleaved yes); made in house; host or cells: Spodoptera frugiperda Super 9 insect cells (baculovirus, BAC-TO-BAC)
Sequence (Q9Y337 67-293 limits assumed): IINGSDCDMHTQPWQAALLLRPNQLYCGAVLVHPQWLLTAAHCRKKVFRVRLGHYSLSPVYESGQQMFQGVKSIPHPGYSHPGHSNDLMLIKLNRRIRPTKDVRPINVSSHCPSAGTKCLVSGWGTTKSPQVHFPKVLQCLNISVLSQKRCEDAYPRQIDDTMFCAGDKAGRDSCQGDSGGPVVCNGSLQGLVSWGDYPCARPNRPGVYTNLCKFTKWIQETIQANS
Test: Kinetic FLINT KLK5 assay
Assay type: biochemical
Conditions: 7.5 nM KLK5, 9 uM (Tos-Gly-Pro-Arg)2[R110] substrate, pH 8; each compound tested more than once; read-out: average pIC50 (converted)
Where a name gives a salt, the structure may show the parent alone.
experimental readout: IC50
Please format your answer as a value with the unit trailing.

Here is how some compounds turned out for IC50.
- compound: "N=C(N)c1ccc(C2Cc3ccc(C(F)(F)F)cc3B(O)O2)cc1 (centres unmarked)"
  experimental target: "human kallikrein 5 recombinant enzyme (KLK5) (Homo sapiens)"
  result: "10 nM"
- compound: "N=C(N)c1ccc([C@H]2Cc3ccc(C(F)(F)F)cc3B(O)O2)cc1OCc1cccnc1 [Compound 2, hydrochloride salt]"
  experimental target: "human kallikrein 5 recombinant enzyme (KLK5) (Homo sapiens)"
  result: "3.98 nM"
- compound: "N=C(N)c1ccc(C2Cc3ccc(C(F)(F)F)cc3B(O)O2)cc1OCc1cccc(Cl)c1 (centres unmarked)"
  experimental target: "human kallikrein 5 recombinant enzyme (KLK5) (Homo sapiens)"
  result: "7.94 nM"

Can you look up IC50 on human kallikrein 5 recombinant enzyme (KLK5) (Homo sapiens) for N=C(N)c1ccc([C@H]2Cc3ccc(C(F)(F)F)cc3B(O)O2)cc1OCc1cccnc1 [Compound 3] ?
39.8 nM

Can you look up IC50 on human kallikrein 5 recombinant enzyme (KLK5) (Homo sapiens) for "N=C(N)c1ccc([C@@H]2Cc3ccc(C(F)(F)F)cc3B(O)O2)cc1OCc1cccnc1" ?
3.98 nM
